All values here come from the RNAGym collection of RNA variant scans (doi:10.7554/elife.80360).

B1: HDV Ribozyme (parent)
chain: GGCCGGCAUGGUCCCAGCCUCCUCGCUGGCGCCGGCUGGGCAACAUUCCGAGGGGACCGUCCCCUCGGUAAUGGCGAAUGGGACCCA

# Variants of: B1
# test_description: self-cleavage, relative activity (ratio to wild type); higher = more cleavage; co-transcriptional
quantity: self-cleavage

INSERT INTO measurements (residue_string, test_result) VALUES
  ('GGCCGCCAUGGUCCCAGCCUCCUCGCUGGCGCCGGCUGGGCAACAUUCCGAGGGGACCGUCCCCUCGGUAAUGUCGAAUGGGACCCA [G6C G74U]', 0.196),
  ('GGCCGGCAUGGUCCCAGUCACCUCGCUGGCGCCGGCUGGGCAACAUUCCGAGGGGACCGUCCCCUCGGUAAUGGCGAAUGGGACCCA [C18U U20A]', 0.0339),
  ('GGCCGGCAUGGUCCCAGCCUCCUCGCUGGCGCCGGCUUGGCAACAUUCCGAGGGGACCGUCCCCUCGGUAAUGGCGACUGGGACCCA [G38U A78C]', 0.086),
  ('GGCCGGCAUGGUCCCAGCCUUCUCGCUGGCGCCGGCUGGGCAACAUUCCGAGGGGACCAUCCCCUCGGUAAUGGCGAAUGGGACCCA [C21U G59A]', 0.154),
  ('GGCCGGCAUGGUCCCAGCCUCCUCGCUGGCGCCGGCUGGGCAACAUUCCGAGGGGACCGUCCCCUCGGUGAUGGUGAAUGGGACCCA [A70G C75U]', 0.136),
  ('GGCCGGCUUGGUCCCAGCCUCCUCGCUGGCGGCGGCUGGGCAACAUUCCGAGGGGACCGUCCCCUCGGUAAUGGCGAAUGGGACCCA [A8U C32G]', 0.125),
  ('GGCCGGCAUGGUCCCAGCCUCCUCGCUGGCGCCAGCUGGGCAACAUUCCAAGGGGACCGUCCCCUCGGUAAUGGCGAAUGGGACCCA [G34A G50A]', 0.16),
  ('GGCCGGCAUGGUCCCAGCCUCCUCGCUGGCGCCGGCUGGGCAACAUUCCGAGGGGACCGUCCCCUCGGUAAUGGCAAAUGGGACUCA [G76A C85U]', 1.11),
  ('GGCAGGCAUGGUCCCAGCCUCCUCGCUGGCGCCGGCUGGGCAACAUUCCGAGGGGACCGUCACCUCGGUAAUGGCGAAUGGGACCCA [C4A C62A]', 0.177),
  ('GGCCGGCACGGUCCCAGCCUCCUAGCUGGCGCCGGCUGGGCAACAUUCCGAGGGGACCGUCCCCUCGGUAAUGGCGAAUGGGACCCA [U9C C24A]', 0.864),
  ('GGCCGGCAUGGUCCCACCCUCCUCGCUGGCGCCGGCUGGGCAACAUACCGAGGGGACCGUCCCCUCGGUAAUGGCGAAUGGGACCCA [G17C U47A]', 0),
  ('GGCCGGCAUGGUCCCAGCCUCCUCGCUGGCGCCGGCUGGACAACAUUCCGAGGGGACCGUCCCCUCGGUAAUGGCGAAUGGGACCCC [G40A A87C]', 0.981),
  ('GGCCGGCAUGGUCCCUGCCUCCUCGCUGGCGCCGGCUGGGCAACAUUCCGAGGGGACCGUCCCCUCGGUAACGGCGAAUGGGACCCA [A16U U72C]', 0.569),
  ('GGCCGGCAUGGUCCCAGCCUCCUCGCUGGCGCCGGCUGGGCAACAUUCCGAGGGGACCGUCCCCCCGGUAAUGCCGAAUGGGACCCA [U65C G74C]', 0.204),
  ('GGCCGGCAUGGUCCCAGCCUCCUCGCUGGCGCCGGCUGGGCAACAUUCCGAGUGGACCGUCCCCUAGGUAAUGGCGAAUGGGACCCA [G53U C66A]', 0.937),
  ('GGCCGGCAUGGUCCCAGCCUCCUCGCUGGCGCCGGCUGGGCAACAUUCCGAGGGGACCGUCCCCUCGGUAAUGGCAAAUGGGAUCCA [G76A C84U]', 1.05),
  ('GGCCGGCAUGGUCCCAGCCUCCUCGCUGGCGCCGGCUGGGCAACAUUCGGAGGGCACCGUCCCCUCGGUAAUGGCGAAUGGGACCCA [C49G G55C]', 1.03),
  ('GGCCGGCAUGGUGCCAGCCUCCUCGCUGGCGCCGGCUGGGCAACAUUCCGAGGGGACCGUCCCCUCGGUAAUGGCGAAUGGGACCCU [C13G A87U]', 0.0911),
  ('GGCCGGCAUGGUCCCAGCGUCCUCGCUGGCGCCGGAUGGGCAACAUUCCGAGGGGACCGUCCCCUCGGUAAUGGCGAAUGGGACCCA [C19G C36A]', 0.0277),
  ('GGCUGGCAUGGUCCCAGCCUCCUCGCUGGCGCCGGCUGGGCAACAUUCCGAGGGGACCGUCCCCUCGGUAUUGGCGAAUGGGACCCA [C4U A71U]', 0.776),
  ('GGCCGGCAUGGUCCCAGCCUCCACGCUGGCGCCGGCUGGGCAACAUUACGAGGGGACCGUCCCCUCGGUAAUGGCGAAUGGGACCCA [U23A C48A]', 0.88),
  ('GGCCCGCAUGGUCCCAGCCUCCUCGCUGGCGCCGGCUGGGCAACAUUCCGAGGGGACCGUCCGCUCGGUAAUGGCGAAUGGGACCCA [G5C C63G]', 0),
  ('GGCCGGCAUGGUCCCAGCCUCGUCGCUGGCGCCGGCUGUGCAACAUUCCGAGGGGACCGUCCCCUCGGUAAUGGCGAAUGGGACCCA [C22G G39U]', 0.102),
  ('GUCCGGGAUGGUCCCAGCCUCCUCGCUGGCGCCGGCUGGGCAACAUUCCGAGGGGACCGUCCCCUCGGUAAUGGCGAAUGGGACCCA [G2U C7G]', 0),
  ('GGCCGGCAUGGUCCCAGCCUCCUCCCUGGCGCCGGCUGGGCAACAUUCCGAGGGAACCGUCCCCUCGGUAAUGGCGAAUGGGACCCA [G25C G55A]', 0.158),
  ('GGCCGGCAUGGUCCCAGCCUCCUCCCUGGCGCCGGGUGGGCAACAUUCCGAGGGGACCGUCCCCUCGGUAAUGGCGAAUGGGACCCA [G25C C36G]', 0.0519),
  ('GGCCGGCAUGGUCCCAGCCUCCUCGCUGGCGCCUGCUGGGCAACAUUCCGAGGGGACCGUCCCCUAGGUAAUGGCGAAUGGGACCCA [G34U C66A]', 0.0712),
  ('GGCCGGCAUGGUCCCAGCCUCCUCGCUCGCGCCGGCUGGGCAACAUUCCGAGGGGACCGUCCCCUCGGCAAUGGCGAAUGGGACCCA [G28C U69C]', 0.101),
  ('GGCCGGCAUGGUCCCAGCCUCCUCGCUGGCGCGGGCUGGGCAACAUUCCGAGGGGACCGUCCCCUCUGUAAUGGCGAAUGGGACCCA [C33G G67U]', 0.111),
  ('GGCCGGCAUGGUCCCAGCCUCCUCGCUGGCGGCGGCUGGGCAACAUUCCGAGGGGACUGUCCCCUCGGUAAUGGCGAAUGGGACCCA [C32G C58U]', 0.0234),
  ('GGUCGGCAUGGUCCCAGCCUCCUCGCUGGCGCCGGCUGGGCAAGAUUCCGAGGGGACCGUCCCCUCGGUAAUGGCGAAUGGGACCCA [C3U C44G]', 0.354),
  ('GGCCGGCAUGGUCCCAGCCUCCUCGCUGGCGCCGGCUGGGCAACAUACCGAGGGGACCGUCCCCUCGGUAAUGGCGAAUGGGACCAA [U47A C86A]', 1.04),
  ('GGCCGGCAUGGUCCCAGCCUCCUCGCUGGCGCCGGCUGGGCAAGAUUCCGAGGGGACCGUCCCCUCGGUAAUGGCGAAAGGGACCCA [C44G U79A]', 0.388),
  ('GGCCGGCAUGGUCCCAGCCUCCUCGCUGGCGCCGCCUGGGCAACAUUCCGAGGGGACCGUCCCCUCGGUAAUGGCGAAUGGGACACA [G35C C85A]', 0.213),
  ('GGCCGGCAUGGUCCCAGCCUUCUCGCUGGCGCCGGCUGGGCAACAAUCCGAGGGGACCGUCCCCUCGGUAAUGGCGAAUGGGACCCA [C21U U46A]', 0.511),
  ('GGCCGGCAUGGUCCCAGCCUCCUCGCUGGCGCCGGCUGGGCAAUAUUCCGAGGGGACCGUCCCCUAGGUAAUGGCGAAUGGGACCCA [C44U C66A]', 0.677),
  ('GGCCGGCAUGGUCCCAGCCUCCUCGCUGGCGCCGGAUGGGCAACAUUCCGAGGGGACCGUCGCCUCGGUAAUGGCGAAUGGGACCCA [C36A C62G]', 0.17),
  ('GGCCGGCGUGGUCCCAGCCUCCUCGCUGGCGCCGGCUGGGCAAAAUUCCGAGGGGACCGUCCCCUCGGUAAUGGCGAAUGGGACCCA [A8G C44A]', 0.665),
  ('GGCCGGCAUGGUCCCAGCCUCCUCGCUGACGCCGGCUGGGCAACAUUCCGAGGGGACCGUCCCCUCGGUAAUGGCGAUUGGGACCCA [G29A A78U]', 0.143),
  ('GGCCGGCAUGGUCCCAACCUCCUCGCUGGCGCCGGCUGGGCAACAUUCCGAGGGGACCGUCCCCUCGGUAAUGGAGAAUGGGACCCA [G17A C75A]', 0.128),
  ('GGCCGGCAUGGUCUCAGCCCCCUCGCUGGCGCCGGCUGGGCAACAUUCCGAGGGGACCGUCCCCUCGGUAAUGGCGAAUGGGACCCA [C14U U20C]', 0.133),
  ('GGCCGGCAUGGUCCCAGCCUCCUCGCUGGCGCCGGCUGGGCAACAUUCCGAGAGGACCGUCCUCUCGGUAAUGGCGAAUGGGACCCA [G53A C63U]', 0.812),
  ('GGCCGGCAUGGUCCCAGCCUCCUCGAUGGCGCCGGCUGGGCAACAUUCCGAGGGGACCGUCGCCUCGGUAAUGGCGAAUGGGACCCA [C26A C62G]', 0.63),
  ('GGCCGGCAUGGUCCCAGCCUCCUCGCUGGCGCCGGCUGGGCAACAUUCCGAGGGGACCGUCCGCUCGGUAAUGGCUAAUGGGACCCA [C63G G76U]', 0.978),
  ('GGCCGGCAUGGUCCCAGCCUCCUCGCUGGCGCCGGCUGGUCAACAUUCAGAGGGGACCGUCCCCUCGGUAAUGGCGAAUGGGACCCA [G40U C49A]', 0.787),
  ('GGCCGGCAUGGUUCCAGCCUCCUCGCUGGCGCCGGCUGGGCAACAUUCCGAGGGGACCGACCCCUCGGUAAUGGCGAAUGGGACCCA [C13U U60A]', 0.554),
  ('GGCCGGCAUGGUCCCAGCCUCAUCGCUGGCGCCGGCUGGGCAACAGUCCGAGGGGACCGUCCCCUCGGUAAUGGCGAAUGGGACCCA [C22A U46G]', 0.172),
  ('GGUCGCCAUGGUCCCAGCCUCCUCGCUGGCGCCGGCUGGGCAACAUUCCGAGGGGACCGUCCCCUCGGUAAUGGCGAAUGGGACCCA [C3U G6C]', 0),
  ('GGCCGGCAUGGUCCCAGCCUCCUCGCUGGCGCCGGCUGGGCAACAUCCCGAGGGGACCGUCCCCUCGGUAAUGGCGAAAGGGACCCA [U47C U79A]', 0.65);
